System: IGR37 cells
Test: Cell proliferation measurement (CellTiter-Glo, 72 h)
Type: cell-based
Conditions: Homo sapiens, IGR-37, anti-proliferation, IGR37, Melanoma
Protocol: The antiproliferative activity of the compounds of the general formula (I) was examined in vitro in human cancer cells. […] After 24 h, cells on one plate (0 h plate) were treated with 30 μl/cavity of CTG solution (Promega Cell Titer Glo (catalogue #G755B and G756B)) and incubated at room temperature for 10 min, and luminescence was measured by means of a VICTOR V (Perkin Elmer), in order to determine cell viability on commencement of treatment. […]
observedProperty: IC50 (nM)

1) C[C@@H]1NC(=O)NN=C1c1ccc(-n2ccc(C(F)(F)F)n2)c(C(F)(F)F)c1 [Example 1] = 4.01

Values from patent US20250170136A1
